target: JAK1(h) (Homo sapiens (Human), UniProt P23458)
Sequence (P23458 whole entry): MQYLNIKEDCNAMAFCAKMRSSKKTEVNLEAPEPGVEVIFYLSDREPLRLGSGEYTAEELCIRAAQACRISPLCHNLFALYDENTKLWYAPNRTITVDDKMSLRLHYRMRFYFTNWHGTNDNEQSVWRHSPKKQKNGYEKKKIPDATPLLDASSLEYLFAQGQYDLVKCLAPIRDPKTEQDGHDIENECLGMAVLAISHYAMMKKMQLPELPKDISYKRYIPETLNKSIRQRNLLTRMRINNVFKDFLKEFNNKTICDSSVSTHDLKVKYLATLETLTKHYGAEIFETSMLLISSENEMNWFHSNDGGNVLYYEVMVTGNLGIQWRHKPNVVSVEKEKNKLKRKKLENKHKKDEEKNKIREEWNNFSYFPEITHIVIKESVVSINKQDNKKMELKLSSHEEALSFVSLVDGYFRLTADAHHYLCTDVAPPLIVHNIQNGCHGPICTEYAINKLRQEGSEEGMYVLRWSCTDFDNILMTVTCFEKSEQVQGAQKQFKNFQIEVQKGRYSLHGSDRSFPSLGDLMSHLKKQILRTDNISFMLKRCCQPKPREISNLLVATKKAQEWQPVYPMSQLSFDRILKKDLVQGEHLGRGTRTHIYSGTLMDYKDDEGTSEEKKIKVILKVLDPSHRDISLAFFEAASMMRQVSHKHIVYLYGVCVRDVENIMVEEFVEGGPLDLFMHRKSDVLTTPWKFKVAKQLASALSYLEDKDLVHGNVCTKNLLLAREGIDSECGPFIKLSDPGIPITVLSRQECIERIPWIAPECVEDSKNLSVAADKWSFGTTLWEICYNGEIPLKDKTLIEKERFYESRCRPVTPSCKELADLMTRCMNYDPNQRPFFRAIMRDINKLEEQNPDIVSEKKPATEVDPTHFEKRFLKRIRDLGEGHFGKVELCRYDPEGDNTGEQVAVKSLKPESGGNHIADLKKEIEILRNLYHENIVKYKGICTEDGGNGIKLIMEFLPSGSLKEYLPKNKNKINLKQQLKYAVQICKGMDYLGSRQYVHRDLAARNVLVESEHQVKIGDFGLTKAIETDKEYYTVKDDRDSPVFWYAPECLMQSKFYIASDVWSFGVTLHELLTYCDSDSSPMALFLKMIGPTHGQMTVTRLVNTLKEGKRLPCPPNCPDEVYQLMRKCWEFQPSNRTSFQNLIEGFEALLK
quantity.measured: pIC50
Give bare numbers, as −log10 of the molar value.

Recorded pIC50, per entry:
1) Cn1nc(-c2cn3nccc3c(-c3cnn([C@]4(CC#N)CC5(C[C@H](C#N)C5)C4)c3)n2)cc1N (stereo partly shown) : 7.29
2) Cn1cc(-c2cc(-c3cnn([C@]4(CC#N)CC5(C[C@H](C#N)C5)C4)c3)c3ccnn3c2)cn1 (stereo partly shown) : 7.38
3) Cn1ccc(-c2cn3nccc3c(-c3cnn([C@]4(CC#N)CC5(C[C@@H](C#N)C5)C4)c3)n2)n1 (stereo partly shown) : 7.11
4) Cn1ccc(-c2cn3nccc3c(-c3cnn([C@]4(CC#N)CC5(C[C@H](C#N)C5)C4)c3)n2)n1 (stereo partly shown) : 6.22

// batch mode: one pIC50 value per listed entry
1. N#CC[C@]1(n2cc(-c3nc(-c4cc(N)[nH]n4)cn4nccc34)cn2)CC2(C[C@@H](C#N)C2)C1 (stereo partly shown)
2. Cn1ccc(-c2cn3nccc3c(-c3cnn(C4(CC#N)CC5(CN(C#N)C5)C4)c3)n2)n1
3. Cn1ccc(-c2cn3nccc3c(-c3cnn(C4(CC#N)CC5C(C#N)C5C4)c3)n2)n1 (stereo not shown)

[A]
1: 8.30; 2: 5.54; 3: 7.86
